- System: Patient 2 TCC-03
- Measurement protocol: IFN-γ ELISpot with T cell clone
- Type: cell-based, human
- Condition label: TCC Patient 2 TCC-03, peptide 25 μg/mL
Where no end group is shown, it is not given here. [ ]: non-standard residue; d: D form. pGlu = O=C1CC[C@@H](C(=O)O)N1
Quantity kind: IFN-γ ELISpot response (SFU)
Write your answer as a measured quantity: the number, then the unit.

QYQPYPEQEEPFVQQQ = 0 SFU
QPQPYPEQPQPYP ([pGlu]PQPYPEQPQPYP-NH2; SMILES NC(=O)CC[C@H](NC(=O)[C@H](CCC(=O)O)NC(=O)[C@@H]1CCCN1C(=O)[C@H](Cc1ccc(O)cc1)NC(=O)[C@@H]1CCCN1C(=O)[C@H](CCC(N)=O)NC(=O)[C@@H]1CCCN1C(=O)[C@@H]1CCC(=O)N1)C(=O)N1CCC[C@H]1C(=O)N[C@@H](CCC(N)=O)C(=O)N1CCC[C@H]1C(=O)N[C@@H](Cc1ccc(O)cc1)C(=O)N1CCC[C@H]1C(N)=O) = 132 SFU
YQPYPEQEQPILQQ = 1 SFU

Need IFN-γ ELISpot response (SFU) for each of these sequences.
1. PEQPIPEQPQPYPQQ
2. SEQYQPYPEQEQPFV [DQ2.5-ave-1b]
3. PEQPFPEQPQPYPQQP (not fully specified (C-terminus))

156 SFU
1 SFU
159 SFU
